These data points were gathered from ChEMBL document CHEMBL1909507.

Test: Antiproliferative activity against mouse B16F0 after 48 hrs by SRB assay
ASSAY READOUT: IC50 (nM)
Give bare numbers, in nM.

Consider the reported IC50 for these molecules:
CHEMICAL SMILES: Cc1ccc(C)c(NS(=O)(=O)c2ccc(N3CCNC3=O)cc2)c1
IC50 / nM: 86
--
CHEMICAL SMILES: CCc1cccc(NS(=O)(=O)c2ccc(N3CCNC3=O)cc2)c1
IC50 / nM: 270
--
CHEMICAL SMILES: Cc1cccc(NS(=O)(=O)c2ccc(N3CCNC3=O)cc2)c1
IC50 / nM: 290

For every item in the list below, what is its measured IC50?
1. Cc1cc(C)cc(NS(=O)(=O)c2ccc(N3CCNC3=O)cc2)c1
2. CC(=O)O[C@H]1C(=O)[C@@]2(C)[C@H]([C@H](OC(=O)c3ccccc3)[C@]3(O)C[C@H](OC(=O)[C@H](O)[C@@H](NC(=O)c4ccccc4)c4ccccc4)C(C)=C1C3(C)C)[C@]1(OC(C)=O)CO[C@@H]1C[C@@H]2O
3. CC[C@]1(O)C[C@@H]2CN(CCc3c([nH]c4ccccc34)[C@@](C(=O)OC)(c3cc4c(cc3OC)N(C)[C@H]3[C@@](O)(C(=O)OC)[C@H](OC(C)=O)[C@]5(CC)C=CCN6CC[C@]43[C@@H]65)C2)C1
4. COc1cc2c(c(OC)c1OC)-c1ccc(OC)c(=O)cc1[C@@H](NC(C)=O)CC2

[260, 28, 0.099, 13]
